target: mushroom tyrosinase; assay: Tyrosinase inhibition assay (diphenolase activity, L-DOPA substrate); conditions: L-DOPA 0.5 mM, pH 6.8, 25°C, mean ± SEM, read-out: IC50 ± SEM, tyrosinase inhibitory activity
Mark true (1) for IC50 under 3 µM, false (0) if at or over.

1) CC(=O)Oc1ccc2ccccc2c1/N=N/c1ccc(C(=O)N/C(=C/c2ccc(OC(F)(F)F)cc2)C(=O)Sc2ccc(C)cc2S)cc1 [Compound 5f]
true (1)
2) Cc1ccc(SC(=O)/C(=C\c2ccc(OC(F)(F)F)cc2)NC(=O)c2ccc(/N=N/c3ccc(N(C)C)cc3)cc2)c(S)c1 [Compound 5b]
false (0)
3) CC(=O)Oc1c(/N=N/c2ccc(C(=O)N/C(=C/c3ccc(OC(F)(F)F)cc3)C(=O)Sc3ccc(C)cc3S)cc2)ccc2ccccc12 [Compound 5d]
true (1)
4) Cc1ccc(SC(=O)/C(=C\c2ccc(F)cc2)NC(=O)c2ccc(/N=N/c3ccc(N(C)C)cc3)cc2)c(S)c1 [Compound 5a]
false (0)
5) CC(=O)Oc1ccc2ccccc2c1/N=N/c1ccc(C(=O)N/C(=C/c2ccc(F)cc2)C(=O)Sc2ccc(C)cc2S)cc1 [Compound 5e]
true (1)
6) CC(=O)Oc1c(/N=N/c2ccc(C(=O)N/C(=C/c3ccc(F)cc3)C(=O)Sc3ccc(C)cc3S)cc2)ccc2ccccc12 [Compound 5c]
true (1)

###

assay: Cytotoxicity assay (MTT); type: cell-based; conditions: B16F10 mouse melanoma cells, 20 μg/mL, read-out: Cytotoxicity cell viability (%)
Endpoint name: viability at 72 h, 20 μg/mL (%)

1. CC(=O)Oc1ccc2ccccc2c1/N=N/c1ccc(C(=O)N/C(=C/c2ccc(OC(F)(F)F)cc2)C(=O)Sc2ccc(C)cc2S)cc1
80.6
2. CC(=O)Oc1ccc2ccccc2c1/N=N/c1ccc(C(=O)N/C(=C/c2ccc(F)cc2)C(=O)Sc2ccc(C)cc2S)cc1
81.9
3. Cc1ccc(SC(=O)/C(=C\c2ccc(OC(F)(F)F)cc2)NC(=O)c2ccc(/N=N/c3ccc(N(C)C)cc3)cc2)c(S)c1
80.1
4. Cc1ccc(SC(=O)/C(=C\c2ccc(F)cc2)NC(=O)c2ccc(/N=N/c3ccc(N(C)C)cc3)cc2)c(S)c1
82.2
5. CC(=O)Oc1c(/N=N/c2ccc(C(=O)N/C(=C/c3ccc(OC(F)(F)F)cc3)C(=O)Sc3ccc(C)cc3S)cc2)ccc2ccccc12
84.7
6. CC(=O)Oc1c(/N=N/c2ccc(C(=O)N/C(=C/c3ccc(F)cc3)C(=O)Sc3ccc(C)cc3S)cc2)ccc2ccccc12
83.2

###

Listed here: items and their measured melting point.
Endpoint name: melting point

1) CC(=O)Oc1c(/N=N/c2ccc(C(=O)N/C(=C/c3ccc(OC(F)(F)F)cc3)C(=O)Sc3ccc(C)cc3S)cc2)ccc2ccccc12
318 °C (dec.)
2) Cc1ccc(SC(=O)/C(=C\c2ccc(F)cc2)NC(=O)c2ccc(/N=N/c3ccc(N(C)C)cc3)cc2)c(S)c1
293 °C (dec.)
3) CC(=O)Oc1ccc2ccccc2c1/N=N/c1ccc(C(=O)N/C(=C/c2ccc(OC(F)(F)F)cc2)C(=O)Sc2ccc(C)cc2S)cc1
320 °C (dec.)
4) CC(=O)Oc1c(/N=N/c2ccc(C(=O)N/C(=C/c3ccc(F)cc3)C(=O)Sc3ccc(C)cc3S)cc2)ccc2ccccc12
308 °C (dec.)
5) CC(=O)Oc1ccc2ccccc2c1/N=N/c1ccc(C(=O)N/C(=C/c2ccc(F)cc2)C(=O)Sc2ccc(C)cc2S)cc1
325 °C (dec.)
6) Cc1ccc(SC(=O)/C(=C\c2ccc(OC(F)(F)F)cc2)NC(=O)c2ccc(/N=N/c3ccc(N(C)C)cc3)cc2)c(S)c1
286 °C (dec.)
